Reported values of GI50 for individual entries
System: SNB-19
assayNotes: NCI tumour cell line growth inhibition, 48 h
Activity calls are given as the source filed them. Cut-off read from the data, not from the text of the source: active = GI50 up to about 1.1 µM and inactive = higher.
attributeMeasured: GI50

| molecule | experimentalValue |
| --- | --- |
| COc1cc(/C=C/c2ccc(/C=C/c3cc(OC)c(OC)c(OC)c3)cc2)cc(OC)c1OC | 13.6 µM (inactive) |
| Nc1nc2c(C(=O)NCc3cccs3)nnn2c2cccc(Cl)c12 | > 100 µM (inactive) |
| N#Cc1ccccc1Nc1ccccc1S | 22.5 µM (inactive) |
| CC(CCc1ccccc1)NCC(O)n1c(/N=N/N(C)C)nc2c1c(=O)n(C)c(=O)n2C (stereo not given) | > 100 µM (inactive) |
| Cn1c2ccccc2c2ccc3c(c21)C(=O)c1ccccc1C3=O | 37.8 µM (inactive) |
| COC1=CC(=O)C2C(C1=O)[C@@H]1c3ccccc3C[C@H]21 (stereo not given in full) | > 100 µM (inactive) |
| COc1cc2c(c(OC)c1OC)-c1ccc(SC)c(=O)cc1[C@@H](NC(=O)c1ccc(Cl)cc1)CC2 | < 0.01 µM (active) |
| CCC1OCCN1C(C)C (stereo not given) | > 100 µM (inactive) |
| O=C1/C(=C/c2ccccc2)Oc2cc(O)ccc21 | > 100 µM (inactive) |
| CCN(CC)c1c(C(=O)/C=C/c2ccccc2)c(-c2ccccc2)nn(C)c1=O | 29.4 µM (inactive) |
